Target: T1, human calcitonin receptor on BHK570/CRE-luc cells (human, UniProt P30988 25-474)
T1 sequence (looked up): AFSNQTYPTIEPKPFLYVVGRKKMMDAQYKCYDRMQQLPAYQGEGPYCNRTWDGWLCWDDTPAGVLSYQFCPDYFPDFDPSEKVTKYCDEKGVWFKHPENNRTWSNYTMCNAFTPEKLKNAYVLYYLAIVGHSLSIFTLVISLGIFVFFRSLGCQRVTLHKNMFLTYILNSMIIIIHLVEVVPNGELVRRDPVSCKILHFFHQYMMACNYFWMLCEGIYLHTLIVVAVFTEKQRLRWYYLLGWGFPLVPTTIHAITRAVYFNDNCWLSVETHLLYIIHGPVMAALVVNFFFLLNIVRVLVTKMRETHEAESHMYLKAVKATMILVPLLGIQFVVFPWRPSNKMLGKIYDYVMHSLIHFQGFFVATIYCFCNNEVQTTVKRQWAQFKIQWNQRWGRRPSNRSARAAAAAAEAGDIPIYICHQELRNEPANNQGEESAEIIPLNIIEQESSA
Experiment: cell-based or functional assay
Numbered stars: 1 amine (or outer) side, 2 acyl side, 3 side chain; on linkers, the order of the positions; unused ones are H or OH. Side chains are listed from the residue outwards. * marks the point of attachment. C20 diacid = O=C(O)CCCCCCCCCCCCCCCCCCC(=O)*; C18 diacid = O=C(O)CCCCCCCCCCCCCCCCC(=O)*; C16 diacid = O=C(O)CCCCCCCCCCCCCCC(=O)*; γGlu = O=C(O)[C@H](CCC(=O)[*:2])N[*:1]; C14 diacid = O=C(O)CCCCCCCCCCCCC(=O)*; AEEA = NCCOCCOCC(=O)O
Below, each entry is listed alongside its reported hCTR funct. EC50 (pM), tested with HSA.
property-label: hCTR funct. EC50 (pM), tested with HSA

>>> test_value("Ac-ASELSTAALGRLSAK([γGlu-C20 diacid])LHELATLPRTETGSGSP-NH2 [[N-terminal(acetyl), des1, 16K(C20 diacid-gGlu), 30S, 31G]mimylin]")
"44 pM"
>>> test_value("{C20 diacid-γGlu}-ASGLSTAALGRLSAELHELATYPRTETGSGSP-NH2 [[N-terminal(C20 diacid-gGlu), des1, 4G, 23Y, 30S, 31G]mimylin]")
"45 pM"
>>> test_value("{C20 diacid-γGlu}-ASELSTAALGHLSAELHELATLPRTETGSGSP-NH2 [[N-terminal(C20 diacid-gGlu), des1, 12H, 30S, 31G]mimylin]")
"48 pM"
>>> test_value("{C18 diacid}-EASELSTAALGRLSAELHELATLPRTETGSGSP-NH2 [[N-terminal(C18 diacid), 30S, 31G]mimylin]")
"19 pM"
>>> test_value("{C18 diacid-γGlu}-ASELTTAVLGRLEAELHELTTLPRTETGTGTP-NH2 [[N-terminal(C18 diacid-gGlu), des1, 6T, 9V, 14E, 21T, 30T, 31G, 32T]mimylin]")
"31 pM"
>>> test_value("{C20 diacid-γGlu-AEEA-AEEA-AEEA-AEEA-AEEA}-ASELSTAALGRLSAELHELATLPRTETGSGSP-NH2 [[N-terminal(C20 diacid-gGlu-5xOEG), des1, 30S, 31G]mimylin]")
"27 pM"
>>> test_value("{C18 diacid-γGlu}-ASEVSTAVLGRLSAELHELATLPRTETGSGSP-NH2 [[N-terminal(C18 diacid-gGlu), des1, 5V, 9V, 30S, 31G]mimylin]")
"87 pM"
>>> test_value("{C16 diacid}-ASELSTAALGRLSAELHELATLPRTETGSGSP-NH2 [[N-terminal(C16 diacid), des1, 30S, 31G]mimylin]")
"3 pM"
>>> test_value("{C16 diacid-γGlu}-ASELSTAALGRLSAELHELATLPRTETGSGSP-NH2 [[N-terminal(C16 diacid-gGlu), des1, 30S, 31G]mimylin]")
"2 pM"
>>> test_value("{C20 diacid-γGlu-AEEA-AEEA-AEEA-AEEA}-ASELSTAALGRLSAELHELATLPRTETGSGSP-NH2 [[N-terminal(C20 diacid-gGlu-4xOEG), des1, 30S, 31G]mimylin]")
"25 pM"
>>> test_value("Ac-ASK([γGlu-C20 diacid])LSTAALGRLSAELHELATLPRTETGSGSP-NH2 [[N-terminal(acetyl), des1, 4K(C20 diacid-gGlu), 30S, 31G]mimylin]")
"37 pM"
>>> test_value("{C20 diacid}-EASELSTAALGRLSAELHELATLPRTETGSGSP-NH2 [[N-terminal(C20 diacid), 30S, 31G]mimylin]")
"26 pM"
>>> test_value("{C20 diacid-γGlu-AEEA-AEEA-AEEA}-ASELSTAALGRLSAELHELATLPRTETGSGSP-NH2 [[N-terminal(C20 diacid-gGlu-3xOEG), des1, 30S, 31G]mimylin]")
"25 pM"
>>> test_value("{C18 diacid-γGlu}-ASELTTAVLGRLSAELHELATLPRTETGSGTP-NH2 [[N-terminal(C18 diacid-gGlu), des1, 6T, 9V, 30S, 31G, 32T]mimylin]")
"75 pM"
>>> test_value("{C20 diacid-γGlu}-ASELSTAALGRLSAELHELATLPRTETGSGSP-NH2 [[N-terminal(C20 diacid-gGlu), des1, 30S, 31G]mimylin]")
"29 pM"
>>> test_value("{C18 diacid}-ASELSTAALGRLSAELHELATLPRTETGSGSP-NH2 [[N-terminal(C18 diacid), des1, 30S, 31G]mimylin]")
"8 pM"
>>> test_value("{C20 diacid-γGlu}-ASELSTAALGRLSAELHELATYPRTETGSGSY-OH [[N-terminal(C20 diacid-gGlu), des1, 23Y, 30S, 31G, 33Y, C-terminal(-)]mimylin]")
"418 pM"
>>> test_value("{C20 diacid-γGlu}-ASGLSTATLGRLSQELHELQTYPRTETGSGTY-NH2 [[N-terminal(C20 diacid-gGlu), des1, 4G, 9T, 15Q, 21Q, 23Y, 30S, 31G, 32T, 33Y]mimylin]")
"92 pM"
>>> test_value("Ac-ASELSTAALGRLSAELHK([γGlu-C20 diacid])LATLPRTETGSGSP-NH2 [[N-terminal(acetyl), des1, 19K(C20 diacid-gGlu), 30S, 31G]mimylin]")
"22 pM"
>>> test_value("{C14 diacid}-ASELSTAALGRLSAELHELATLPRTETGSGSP-NH2 [[N-terminal(C14 diacid), des1, 30S, 31G]mimylin]")
"4 pM"
>>> test_value("{C18 diacid-γGlu}-ASELTTAVLGRLSAELHELATLPRTETGTGTP-NH2 [[N-terminal(C18 diacid-gGlu), des1, 6T, 9V, 30T, 31G, 32T]mimylin]")
"13 pM"
>>> test_value("{C18 diacid-γGlu}-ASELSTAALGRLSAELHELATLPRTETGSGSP-NH2 [[N-terminal(C18 diacid-gGlu), des1, 30S, 31G]mimylin]")
"11 pM"
